Listing: IC50 of selected compounds
assay target: LSD1 (Homo sapiens, UniProt O60341)
Construct: made in house
experimental details: Biochemical assay for LSD-1 activity (luminescence, H3K4 dimethylated peptide substrate)
condition details: average of two or more tests; 30 min preincubation of enzyme and compound; read-out: LSD1 PIC50 MEAN (converted)
Counter-ions that a name gives are not always drawn.
parameter: IC50 (nM)

compound="CC(C)(C)OC(=O)N[C@H]1CC[C@H](CN[C@@H]2C[C@H]2c2ccccc2)CC1 (relative stereo)" unit_tag=nM meas_value=158
compound="O=C(O)CN1CCC(CN[C@H]2C[C@@H]2c2ccccc2)CC1 (relative stereo)" unit_tag=nM meas_value=200
compound="c1ccc(C2C[C@@H]2NCC2CCCNC2)cc1 (stereo in doubt)" unit_tag=nM meas_value=7.94
compound="O=S(=O)(Nc1ccc([C@@H]2C[C@H]2NCC2CCNCC2)cc1)c1ccccc1 (relative stereo)" unit_tag=nM meas_value=6.31
compound="Cc1cc(CN2CCC(CN[C@@H]3C[C@H]3c3ccccc3)CC2)no1 (relative stereo)" unit_tag=nM meas_value=100
compound="OB1OCc2c(CN3CCC(CN[C@@H]4C[C@H]4c4ccccc4)CC3)cccc21 (relative stereo)" unit_tag=nM meas_value=25.1
compound="O=C(Nc1ccccc1)N1CCC(CN[C@@H]2C[C@H]2c2ccccc2)CC1 (relative stereo)" unit_tag=nM meas_value=79.4
compound="O=C(OCc1ccccc1)N1CCC(CN[C@@H]2C[C@H]2c2ccccc2)CC1 (relative stereo)" unit_tag=nM meas_value=31.6
compound="c1ccc([C@@H]2C[C@H]2NCC2CCN(Cc3ccncc3)CC2)cc1 (relative stereo)" unit_tag=nM meas_value=15.8
compound="CC(C)(C)OC(=O)N1CCCC(CN[C@H]2CC2c2ccccc2)CC1 (stereo in doubt)" unit_tag=nM meas_value=2000
compound=O=C(O)CCN1CCC(CN[C@@H]2C[C@H]2c2ccccc2)CC1 unit_tag=nM meas_value=100
compound="O=C(O)c1ccc(CN2CC[C@@H](CN[C@@H]3C[C@H]3c3ccccc3)C2)cc1 [Example 28b]" unit_tag=nM meas_value=79.4
compound=O=C(O)c1ccc(CCN2CCC(CN[C@@H]3C[C@H]3c3ccccc3)CC2)cc1 unit_tag=nM meas_value=31.6
compound="Cc1noc(C)c1S(=O)(=O)N1CCC(CN[C@@H]2C[C@H]2c2ccccc2)CC1 (relative stereo)" unit_tag=nM meas_value=79.4
compound="Fc1ccccc1C[N+]1(Cc2ccccc2F)CCC(CN[C@@H]2C[C@H]2c2ccccc2)CC1 (relative stereo)" unit_tag=nM meas_value=15.8
compound="OB(O)c1ccc(CN2CCC(CN[C@@H]3C[C@H]3c3ccccc3)CC2)cc1 (relative stereo)" unit_tag=nM meas_value=7.94
compound="CC(N[C@H]1CC1c1ccccc1)C1CCNCC1 (stereo in doubt)" unit_tag=nM meas_value=10
compound="c1ccc([C@@H]2C[C@H]2NCC2CCCCC2)cc1 (relative stereo)" unit_tag=nM meas_value=158
compound="O=C(O)c1ccc(CCCN2CCC(CN[C@@H]3C[C@H]3c3ccccc3)CC2)cc1 [Example 30, HCl]" unit_tag=nM meas_value=12.6
compound=O=C(O)CCN1CC[C@H](CN[C@@H]2C[C@H]2c2ccccc2)C1 unit_tag=nM meas_value=25.1
compound="O=C(c1ccccc1)N1CCC(CN[C@@H]2C[C@H]2c2ccccc2)CC1 (relative stereo)" unit_tag=nM meas_value=126
compound="CC(=O)N1CCC(CN[C@@H]2C[C@H]2c2ccccc2)CC1 (relative stereo)" unit_tag=nM meas_value=316
compound="CN(CCC1CCNCC1)[C@@H]1C[C@H]1c1ccccc1 (relative stereo)" unit_tag=nM meas_value=200
compound="CN1CCC(CN[C@@H]2C[C@H]2c2ccccc2)CC1 (relative stereo)" unit_tag=nM meas_value=6.31
compound=CC(C)(C)OC(=O)N1CCC(CN[C@@H]2C[C@H]2c2ccccc2)CC1 unit_tag=nM meas_value=39.8
compound="c1ccc(CN2CCC(CN[C@@H]3C[C@H]3c3ccccc3)CC2)cc1 (relative stereo)" unit_tag=nM meas_value=6.31
compound="O=C(O)c1ccc(CN2CC[C@H](CN[C@@H]3C[C@H]3c3ccccc3)C2)cc1 [Example 28a]" unit_tag=nM meas_value=158
compound="N[C@H]1CC[C@H](CN[C@@H]2C[C@H]2c2ccccc2)CC1 (relative stereo)" unit_tag=nM meas_value=7.94
compound="O=C(O)c1ccc(CN2CCC(CN[C@H]3C[C@@H]3c3ccccc3)CC2)cc1 (relative stereo)" unit_tag=nM meas_value=200
compound="CS(=O)(=O)c1ccc(CN2CCC(CN[C@@H]3C[C@H]3c3ccccc3)CC2)cc1 (relative stereo)" unit_tag=nM meas_value=6.31
compound="c1ccc(C2C[C@@H]2NCC2CCCNCC2)cc1 (stereo in doubt)" unit_tag=nM meas_value=79.4
